Values compiled from PubChem BioAssay (NCI).

# Tested on: SF-539 CNS
# Method summary: NCI tumour cell line growth inhibition, 48 h
Property name: TGI (µM)
The answer is to be given in µM; state only the numeric part.

Exam item: # get_value(readout='TGI', item= Clc1ccc(C2=C(c3ccccc3)C(c3ccc(Cl)cc3)N3C(=N[C@H]4CCCC[C@@H]43)N2)cc1 (some centres undefined) )
Marked response: 29.7

Exam item: # get_value(readout='TGI', item= c1ccc(CN2CCCCC(Sc3ccccc3)CC2)cc1 (centres undefined) )
Marked response: 77.4

Exam item: # get_value(readout='TGI', item= O=C1c2cc([N+](=O)[O-])cc3cc([N+](=O)[O-])cc(c23)C(=O)N1CCCNCCNCCCN1C(=O)c2cc([N+](=O)[O-])cc3cc([N+](=O)[O-])cc(c23)C1=O )
Marked response: 1.26

Exam item: # get_value(readout='TGI', item= C=C(Br)C(C)(Br)CCC(Br)C(C)(C)Br (centres undefined) )
Marked response: 38.8

###

Task for the reader: assign each of the following molecules its reported TGI.
# Tested on: HCT-116 colon
# Method summary: NCI tumour cell line growth inhibition, 48 h

Exam item: # get_value(readout='TGI', item= Cc1ccc(C(=O)C#Cc2c[nH]c(=O)[nH]c2=O)cc1 )
Marked response: 18.5 µM

Exam item: # get_value(readout='TGI', item= COc1cc(-n2cnc(-c3ccc(Cl)cc3)c2)cc(OC)c1OC )
Marked response: > 100 µM

Exam item: # get_value(readout='TGI', item= CN(C)C1=NC2=S(SC(Nc3ccccc3)=N2)S1 (stereo unspecified) )
Marked response: > 100 µM

Exam item: # get_value(readout='TGI', item= CCN(CC)CCCC(Cc1ccccc1)Nc1c2ccc(Cl)cc2nc2ccc(OC)cc12 (stereo unspecified) )
Marked response: 10.7 µM

Exam item: # get_value(readout='TGI', item= OCCCc1cc(O)c2c(c1)C(CO)C(c1ccc(O)c(O)c1)O2 (stereo unspecified) )
Marked response: > 100 µM

Exam item: # get_value(readout='TGI', item= O=[N+]([O-])c1cc(-c2nnc(C34CC5CC(CC(C5)C3)C4)o2)cc([N+](=O)[O-])c1 )
Marked response: > 100 µM

Exam item: # get_value(readout='TGI', item= O=C1CCC(N2Cc3c(C#CCCCNC(=O)c4cc5c(o4)C(=O)c4ccccc4C5=O)cccc3C2=O)C(=O)N1 (stereo unspecified) )
Marked response: 10.3 µM

Exam item: # get_value(readout='TGI', item= CCOC(=O)c1c[nH]cc1-c1cn(S(=O)(=O)c2ccccc2)cc1C )
Marked response: 58.9 µM

Exam item: # get_value(readout='TGI', item= Cn1c(=O)n2c(-c3ccccc3)c(-c3ccccc3)n2c1=O )
Marked response: > 100 µM

Exam item: # get_value(readout='TGI', item= CCCC(=O)Nc1ccc2c(c1)CN1C(=O)c3ccccc3C1=N2 )
Marked response: > 100 µM

Exam item: # get_value(readout='TGI', item= CC(=O)O[C@H]1CC[C@@]2(C)C(=C[C@H](c3ccc(O)cc3)[C@H]3[C@@H]4CC[C@H](OC(C)=O)[C@@]4(C)CC[C@@H]32)C1 )
Marked response: 29.7 µM

Exam item: # get_value(readout='TGI', item= NC(=O)NC1=NC(Cc2ccccc2)C(=O)N1Cc1ccccc1 (stereo unspecified) )
Marked response: > 100 µM

Exam item: # get_value(readout='TGI', item= O=C1/C(=C/c2ccc(Cl)cc2)N=C(c2ccccc2)N1c1nc2c(Cl)cc(Cl)cc2s1 )
Marked response: 50.8 µM

Exam item: # get_value(readout='TGI', item= C/C(=N\Nc1nc2ccccc2s1)c1cnccn1 )
Marked response: > 36.8 µM

Exam item: # get_value(readout='TGI', item= CC(=O)C1=C(C)N2C(=NC3=C(CCc4ccccc43)C2c2cccc(Br)c2)S1 (stereo unspecified) )
Marked response: > 100 µM

Exam item: # get_value(readout='TGI', item= COc1ccc(C(=O)CC(=O)C(=O)Nc2ccc(C)c(C)c2)cc1 )
Marked response: > 64.4 µM

Exam item: # get_value(readout='TGI', item= CCOC(=O)c1nnsc1NN=C(C)C )
Marked response: > 100 µM

Exam item: # get_value(readout='TGI', item= CCOC(=O)NC(=O)c1cn(CCCOC(=O)NCCCCCCNC(=O)OCCCn2cc(C(=O)NC(=O)OCC)c(=O)[nH]c2=O)c(=O)[nH]c1=O )
Marked response: > 100 µM

Exam item: # get_value(readout='TGI', item= Cc1c(-c2nnc(-c3ccc(F)cc3)o2)nnn1-c1ccnc2c(C(F)(F)F)cccc12 )
Marked response: > 100 µM

Exam item: # get_value(readout='TGI', item= CC1=CC(=O)c2c(C=O)c(O)c(O)c(C(C)C)c2C1=O )
Marked response: 38.5 µM

Exam item: # get_value(readout='TGI', item= CC1=NN(c2cccc(Cl)c2)C(=N/c2nc3ccccc3s2)/C1=C\c1cccs1 )
Marked response: > 100 µM

###

Task for the reader: assign each of the following compounds its reported TGI.
# Test system: ACHN renal
# Method summary: NCI tumour cell line growth inhibition, 48 h

Exam item: # get_value(readout='TGI', item= CCOC(=O)N[C@@H]1C2CC(=O)C(O2)[C@@H]1OC (stereo not given in full) )
Marked response: > 100 µM

Exam item: # get_value(readout='TGI', item= N#Cc1cc(N(CCCl)CCCl)c([N+](=O)[O-])cc1[N+](=O)[O-] )
Marked response: > 100 µM

Exam item: # get_value(readout='TGI', item= C/C(=N\Nc1nc2ccccc2s1)c1cnccn1 )
Marked response: 21.1 µM

Exam item: # get_value(readout='TGI', item= COC(=O)C1=C(CS(=O)c2ccc([N+](=O)[O-])cc2[N+](=O)[O-])ON(C)C1c1ccccc1 (stereo not given) )
Marked response: > 100 µM

Exam item: # get_value(readout='TGI', item= CNS(=O)(=O)c1ccc2[nH]c(O)c(C3=Nc4ccccc4C3=O)c2c1 )
Marked response: > 100 µM

###

# System: SNB-78 CNS
# Method summary: NCI tumour cell line growth inhibition, 48 h
Property name: TGI

Exam item: # get_value(readout='TGI', item= COc1ccc(C(=O)C(C(=O)C(=O)NC2C3CC4CC(C3)CC2C4)c2ccc(OC)cc2)cc1 (stereo unspecified) )
Marked response: > 100 µM

Exam item: # get_value(readout='TGI', item= CCCc1nc(NC#N)nc(C(=O)NC23CC4CC(CC(C4)C2)C3)c1C )
Marked response: > 100 µM

Exam item: # get_value(readout='TGI', item= CCCCCNC(=O)c1c(O)[nH]c(=S)[nH]c1=O )
Marked response: > 100 µM

Exam item: # get_value(readout='TGI', item= CCOC(=O)C(=O)Nc1c(CC)cccc1C(C)CC (stereo unspecified) )
Marked response: > 100 µM

Exam item: # get_value(readout='TGI', item= C=C(Br)C(C)(Br)CCC(Br)C(C)(C)Br (stereo unspecified) )
Marked response: 70.4 µM

Exam item: # get_value(readout='TGI', item= COC(=O)CS(=O)c1ccccc1 (stereo unspecified) )
Marked response: > 100 µM

Exam item: # get_value(readout='TGI', item= COc1ccc(C(=O)CC(=O)C(=O)Nc2ccc(C)c(C)c2)cc1 )
Marked response: > 100 µM

Exam item: # get_value(readout='TGI', item= c1ccc(CN2CCCCC(Sc3ccccc3)CC2)cc1 (stereo unspecified) )
Marked response: 80.1 µM

Exam item: # get_value(readout='TGI', item= Cc1c(C(=O)/C=C/c2c(Cl)cccc2Cl)c(=O)n(-c2ccccc2)n1C )
Marked response: > 100 µM

Exam item: # get_value(readout='TGI', item= COC1OC(COS(=O)(=O)c2ccc(C)cc2)C(O)C(OS(=O)(=O)c2ccc(C)cc2)C1OS(=O)(=O)c1ccc(C)cc1 (stereo unspecified) )
Marked response: > 100 µM

Exam item: # get_value(readout='TGI', item= CC1=CC(=O)c2c(C=O)c(O)c(O)c(C(C)C)c2C1=O )
Marked response: > 100 µM

Exam item: # get_value(readout='TGI', item= Cc1c2cc[n+](C)cc2c(C)c2c1[nH]c1ccc(Cl)cc12 )
Marked response: 2.56 µM

Exam item: # get_value(readout='TGI', item= CCCCCCCCCCCCCCCCCC(=O)OCC(C[As](=O)(O)O)OC(=O)CCCCCCCCCCCCCCCCC (stereo unspecified) )
Marked response: > 100 µM

Exam item: # get_value(readout='TGI', item= COc1ccc(NC(=O)CC(=O)N2N=C(N(CCC#N)c3cccc(C)c3)CC2c2ccccc2)cc1 (stereo unspecified) )
Marked response: > 100 µM

Exam item: # get_value(readout='TGI', item= O=C1OC(c2ccccc2)=N/C1=C\c1cc(Cl)ccc1Cl )
Marked response: > 100 µM

Exam item: # get_value(readout='TGI', item= COc1ccc(-c2cc(-c3cc(C)ccc3O)[nH]c(=O)n2)cc1 )
Marked response: > 100 µM
